test system: A549 NSCLC; test: NCI tumour cell line growth inhibition, 48 h

# COMPOUND, GI50
measured = [
    ("NCCN.NCCN.O=C[O-].O=C[O-].[Co+3].[O-][Cl+3]([O-])([O-])[O-]", "> 100 µM"),
    ("N#CSc1c[nH]c2ccc(/C=C/C(=O)/C=C(/C=C/c3ccc4[nH]cc(SC#N)c4c3)OB(F)F)cc12", "3.31 µM"),
    ("CC(=O)N1c2ccccc2NC2=C(C(=O)N(Cc3ccccc3)C2(C)C)C1c1ccco1 (stereo not given)", "1.03 µM"),
    ("O=c1c(O)cccc2cc(O)c(O)c(O)c12", "> 100 µM"),
    ("CN1C(=O)[C@@H](NC(=O)[C@H](CCC(F)(F)F)[C@H](CCC(F)(F)F)C(N)=O)N=C(c2ccccc2)c2ccccc21", "66.7 µM"),
]

----------
test system: A498 renal; assay: NCI tumour cell line growth inhibition, 48 h
Where a SMILES comes first, the peptide text is derived from it. [ ]: non-standard residue; d: D form. The star is where a group is joined. Tyr(3-Br) = N[C@@H](Cc1ccc(O)c(Br)c1)C(=O)O; Boc = CC(C)(C)OC(=O)*

# COMPOUND, TGI
data = [
    ("Cc1cc(N=Nc2c(O)ccc3ccccc23)ccc1N=Nc1cccc([N+](C)(C)C)c1", "98.8 µM"),
    ("COc1ccc(N/N=C(\\CCN(C)C)c2ccccc2)cc1", "29.6 µM"),
    ("C=C(C)C1CC/C(C)=C/CC[C@]2(C)O[C@H]2CC/C(COC(C)=O)=C\\[C@@H]1O (stereo not given in full)", "> 50 µM"),
    ("CN1C(=O)[C@@H](NC(=O)[C@H](CCC(F)(F)F)[C@H](CCC(F)(F)F)C(N)=O)N=C(c2ccccc2)c2ccccc21", "> 100 µM"),
    ("O=C(Nc1ccccc1O)c1ccc(CNc2ccnc(C(F)(F)F)c2)cc1", "12.2 µM"),
    ("Cc1cc2cn3c4ccc(O)cc4[nH]c(=O)c3c2cc1C", "1.43 µM"),
    ("Cc1cc(C)c2c(c1)CC1(Cc3c(C)ccc(C)c3C1=O)C2=O (stereo not given)", "> 100 µM"),
    ("CN(/N=C/c1cccc2cccnc12)c1ccc([N+](=O)[O-])cc1", "> 100 µM"),
    ("COc1cc(NC(C)=O)ccc1C(=O)NN1C(=O)C(Cl)C1c1ccco1 (stereo not given)", "> 100 µM"),
    ("CCOC(=O)c1sc(N/N=C2\\NC(=O)/C(=C/c3ccc([N+](=O)[O-])cc3)S2)nc1C", "58.5 µM"),
    ("CCN(CC)C(=S)SS(=O)(=O)c1ccc(Cl)cc1", "> 100 µM"),
    ("CCOC(=O)c1c(C)cc(=O)n2c1[nH]c1ccccc12", "> 100 µM"),
    ("COC(=O)C1c2c(c3ccccc3n2C(=O)OC)CCN2CCC1C(S(=O)(=O)c1ccccc1)C2=O (stereo not given)", "> 100 µM"),
    ("Cc1oc(N)c(S(=O)(=O)c2ccc(Cl)cc2)c1C", "> 100 µM"),
    ("CC(C)OP(=O)(OC(C)C)/C(C#N)=C/c1ccco1", "> 100 µM"),
    ("c1ccc(C2=NOC3(c4ccccc4)SC4CCCCC4CN23)cc1 (stereo not given)", "> 100 µM"),
    ("O=C(/C=C1\\C[C@H]2C=Nc3ccccc3C(=O)N2C1)NCCCCNC(=O)/C=C1\\C[C@H]2C=Nc3ccccc3C(=O)N2C1", "32.9 µM"),
    ("CN(C)C/C=C/C(=O)Nc1cc2c(Nc3ccc(F)c(Cl)c3F)ncnc2cc1OCCOC(F)F", "1.91 µM"),
    ("O=C(Nc1nn(C(=O)c2ccc(Cl)cc2)c(=O)s1)c1ccc(Cl)cc1", "> 100 µM"),
    ("COC(=O)[C@H](Cc1ccc(O)c(Br)c1)NC(=O)[C@H](Cc1ccc(O)cc1)NC(=O)OC(C)(C)C (Boc-Tyr-[Tyr(3-Br)]-OMe)", "> 100 µM"),
    ("Cc1ccc(C2NC(=O)c3ccccc3N2)s1 (stereo not given)", "> 100 µM"),
    ("N#CC(C#N)=C(N)/C(C#N)=C/c1ccc2ccccc2n1", "> 100 µM"),
    ("CN1C(c2ccccc2)CS(=O)(=O)CS1(=O)=O (stereo not given)", "> 100 µM"),
    ("CC1(C)OB(O)OC1(C)C", "> 100 µM"),
    ("CCN1C[C@]2(C)CC[C@H](OC)C34C1C([C@H](OC(C)=O)[C@@H]32)[C@@]1(OC)C[C@H](OC)[C@H]2C[C@@H]4[C@@H]1[C@H]2O", "> 100 µM"),
    ("CCN(CC)CCCC(C)Nc1nc(C)cc(Nc2ccc3nc(C)cc(N)c3c2)n1 (stereo not given)", "> 100 µM"),
    ("OC[C@]1(n2nc3ccccc3n2)OC[C@@H]1c1ccccc1", "> 100 µM"),
    ("[N-]=[N+]=Nc1c(C=O)c(=O)n(-c2ccccc2)c2ccccc12", "10.1 µM"),
    ("Cc1ccc([N+](=O)[O-])cc1S(=O)(=O)Nc1ccc(C2=NNC(c3ccccc3O)C2)cc1 (stereo not given)", "79.3 µM"),
    ("COc1cc(O)c2c(c1)C(=O)C=C(Cl)C2=O", "> 100 µM"),
]

----------
test system: DU-145 prostate; experiment: NCI tumour cell line growth inhibition, 48 h

# COMPOUND, TGI
measured = [
    ("CCCCOC(=O)NC(Nc1cccc(C(F)(F)F)c1)(C(F)(F)F)C(F)(F)F", "> 100 µM"),
    ("O=C(O)CNc1ccc(C(=O)O)cc1", "> 100 µM"),
    ("COC1=CC23CCCN2CCc2cc4c(cc2C3C1O)OCO4 (stereo not drawn)", "> 100 µM"),
]

----------
tested on: HCT-15 colon; assay: NCI tumour cell line growth inhibition, 48 h
Documented TGI across a set of molecules
REPORTED ENDPOINT: TGI

# MOLECULE, REPORTED ENDPOINT, REPORTED RESULT
data = [
    ("COc1cc(NC(C)=O)ccc1C(=O)NN1C(=O)C(Cl)C1c1ccco1 (configuration not stated)", "TGI", "> 100 µM"),
    ("CC(=O)Oc1ccc2c(c1)oc1c3ccc(OC(C)=O)cc3n(C)c(=O)c21", "TGI", "> 100 µM"),
    ("CC1(C)CC(=O)C2=C(C1)NC1=C(C(=O)CC(C)(C)C1)C2c1ccc([N+](=O)[O-])cc1", "TGI", "> 100 µM"),
    ("CC(=O)O[C@@H]1[C@@H](O)C2=C3[C@]4(C)[C@@H]1C(C)(C)C(=O)C[C@@H]4[C@]3(O)[C@H](OC(C)=O)[C@@]1(C[C@@H]1C)C2=O", "TGI", "31.5 µM"),
    ("COc1cc2c(cc1OC)C(OC)N(C)c1c-2ccc2cc3c(cc12)OCO3 (configuration not stated)", "TGI", "> 75 µM"),
    ("NC(=O)c1coc(C2OC(CO)C(O)C2O)n1 (configuration not stated)", "TGI", "> 100 µM"),
    ("C=C(C)CC1(O)C(=O)C(OCC)=C1OCC (configuration not stated)", "TGI", "> 100 µM"),
    ("CN(CCO)c1nc(N)cc(=O)[nH]1", "TGI", "> 100 µM"),
    ("CN(C)Cc1cc(C(C)(C)C)ccc1-c1ccc(C(C)(C)C)cc1CN(C)C", "TGI", "> 100 µM"),
    ("O=S(=O)(SCc1ccccc1)C(c1ccccc1)c1ccccc1", "TGI", "> 100 µM"),
    ("CCCC(=O)O[C@H]1C=C2C[C@@]34SS[C@]5(CC6=C[C@H](OC(C)=O)[C@@H]7O[C@@H]7[C@H]6N5C3=O)C(=O)N4[C@@H]2[C@H]2O[C@H]21", "TGI", "1.43 µM"),
    ("O=C1N2CCc3c([nH]c4ccccc34)C23CC2CCCCC12S3 (configuration not stated)", "TGI", "> 100 µM"),
    ("Oc1ccccc1C=Nc1ccc(-c2nc3ccccc3[nH]2)cc1", "TGI", "> 100 µM"),
    ("C/C=C1/CN2CCC3(O)c4ccccc4N4C=C(C(=O)OC)C1CC2C43O (configuration not stated)", "TGI", "> 100 µM"),
    ("CN(/N=C/c1cccc2cccnc12)c1ccc([N+](=O)[O-])cc1", "TGI", "> 100 µM"),
    ("CCN(CC)c1ccc2c(c1)Oc1nc(N)c(C#N)c(N)c1C2Sc1ccc(OC)cc1 (configuration not stated)", "TGI", "3.11 µM"),
    ("CC(=O)OC1CC2Oc3ccc(C)cc3C(C)(O2)C1=O (configuration not stated)", "TGI", "> 100 µM"),
    ("CC#C/C(=N\\OC[C@H]1COCCN1)c1ccc2ncnc(Nc3ccc(OCc4cccc(F)c4)c(Cl)c3)c2c1", "TGI", "2.81 µM"),
    ("O=C(Nc1c(C(F)(F)F)cc(-c2ccccc2)[nH]c1=O)N1CCOCC1", "TGI", "> 100 µM"),
    ("Cc1nc(C(N)=S)sc1C(/C=C/c1ccc(Cl)c(Cl)c1)=N/NC(C)(C)C", "TGI", "> 100 µM"),
    ("S=P1(N2CCCCC2)Oc2ccc3ccccc3c2-c2c(ccc3ccccc23)O1", "TGI", "> 100 µM"),
    ("CCNc1nnc(-c2nsc3ccccc23)s1", "TGI", "> 100 µM"),
    ("C=C1C(=O)C[C@@]23CCC[C@@]12CC(OCOC)C3 (some centres not stated)", "TGI", "3.08 µM"),
    ("CC(=O)N1c2ccccc2NC2=C(C(=O)N(Cc3ccccc3)C2(C)C)C1c1ccco1 (configuration not stated)", "TGI", "> 25 µM"),
    ("Clc1ccc(C2=Nn3c(nnc3-c3cc(Cl)cc(Cl)c3Cl)SC2)cc1", "TGI", "> 100 µM"),
    ("OC(COc1ccc(F)cc1)Cn1cnc2c(Cl)ncnc21 (configuration not stated)", "TGI", "> 100 µM"),
    ("CS(=O)(=O)Nc1cccc(-c2cc(-c3ccccc3Cl)c(C#N)c(N)n2)c1", "TGI", "15.8 µM"),
]
